Target: AraR E30A E30A (Bacillus subtilis)
Test: EMSA
Details: 12 mM HEPES-KOH pH 7.6, 10 mM MgCl2, 200 mM NaCl, 4 mM Na2HPO4, 4 mM NaH2PO4, 0.4 mM EDTA, 1 mM DTT, 0.5% BSA, 10% glycerol, 200-fold poly(dI-dC), 1 nM DNA …
Listed sequences paired with reported Kd
Write your answer as a measured quantity: the number, then the unit.

Some entries whose results are on file:
construct sequence | result
GATTGACAGTATAATAGTCAATTACTATAATAAAATTGTTCGTACAAATATTTATTTATAGGTTTATTTTCTATCATTAGTACGTATCTTTTGTATTTGAAAGCGTTTTATTTTATGAGAAAGGG (double strand) [araABDLMNPQ-abfA promoter ORA1-ORA2 WT] | 198 nM
GATTGACAGTATAATAGTCAATTACTATAATAACATTGTTCGTACAAATATTTATTTATAGGTTTATTTTCTATCATTAGTACGTATCTTTTGTATTTGAAAGCGTTTTATTTTATGAGAAAGGG (double strand) [ORA1 A1->C] | 675 nM
GATTGACAGTATAATAGTCAATTACTATAATAAAATTGGTCGTACAAATATTTATTTATAGGTTTATTTTCTATCATTAGTACGTATCTTTTGTATTTGAAAGCGTTTTATTTTATGAGAAAGGG (double strand) [ORA1 T6->G] | 254 nM

Kindly state the measured Kd obtained for GATTGACAGTATAATAGTCAATTACTATAATAAAATTGTTCGTACAAAGATTTATTTATAGGTTTATTTTCTATCATTAGTACGTATCTTTTGTATTTGAAAGCGTTTTATTTTATGAGAAAGGG (double strand) [ORA1 T16->G] with AraR E30A E30A (Bacillus subtilis).
347 nM

Kindly state the measured Kd obtained for GATTGACAGTATAATAGTCAATTACTATAATAAAATTTTTCGTACAAATATTTATTTATAGGTTTATTTTCTATCATTAGTACGTATCTTTTGTATTTGAAAGCGTTTTATTTTATGAGAAAGGG (double strand) [ORA1 G5->T] with AraR E30A E30A (Bacillus subtilis).
748 nM

====

Listed sequences paired with reported pKd
Biological target: AraR Y5F Y5F (Bacillus subtilis)
Assay: EMSA
Details: 12 mM HEPES-KOH pH 7.6, 10 mM MgCl2, 200 mM NaCl, 4 mM Na2HPO4, 4 mM NaH2PO4, 0.4 mM EDTA, 1 mM DTT, 0.5% BSA, 10% glycerol, 200-fold poly(dI-dC), 1 nM DNA …
pKd here is simply -log10 of the concentration when that concentration is written in mol/L.

Some entries whose results are on file:
construct sequence | subject of test | pKd
GATTGACAGTATAATAGTCAATTACTATAATAAAATTGTTCGTACAAATATTTATTTATAGGTTTATTTTCTATCATTAGTACGTATCTTTTGTATTTGAAAGCGTTTTATTTTATGAGAAAGGG (double strand) [araABDLMNPQ-abfA promoter ORA1-ORA2 WT] | AraR Y5F Y5F (Bacillus subtilis) | 6.56
GATTGACAGTATAATAGTCAATTACTATAATAAAATTGTTCGTACAAAGATTTATTTATAGGTTTATTTTCTATCATTAGTACGTATCTTTTGTATTTGAAAGCGTTTTATTTTATGAGAAAGGG (double strand) [ORA1 T16->G] | AraR Y5F Y5F (Bacillus subtilis) | 6.45
GATTGACAGTATAATAGTCAATTACTATAATAACATTGTTCGTACAAATATTTATTTATAGGTTTATTTTCTATCATTAGTACGTATCTTTTGTATTTGAAAGCGTTTTATTTTATGAGAAAGGG (double strand) [ORA1 A1->C] | AraR Y5F Y5F (Bacillus subtilis) | 6.48

Switching to the query record.
Please report the recorded pKd for GATTGACAGTATAATAGTCAATTACTATAATAAAATTGGTCGTACAAATATTTATTTATAGGTTTATTTTCTATCATTAGTACGTATCTTTTGTATTTGAAAGCGTTTTATTTTATGAGAAAGGG (double strand) [ORA1 T6->G] .
6.32

====

Target: AraR WT (Bacillus subtilis) (UniProt P96711)
Experiment: EMSA
Details: 12 mM HEPES-KOH pH 7.6, 10 mM MgCl2, 200 mM NaCl, 4 mM Na2HPO4, 4 mM NaH2PO4, 0.4 mM EDTA, 1 mM DTT, 0.5% BSA, 10% glycerol, 200-fold poly(dI-dC), 1 nM DNA …
assay metric: Kd (nM)
Your answer should be a plain number; it is taken to be in nM.

construct sequence | readout number
GATTGACAGTATAATAGTCAATTACTATAATAAAATTGGTCGTACAAATATTTATTTATAGGTTTATTTTCTATCATTAGTACGTATCTTTTGTATTTGAAAGCGTTTTATTTTATGAGAAAGGG (double strand) [ORA1 T6->G] | 56

Please report the recorded Kd for GATTGACAGTATAATAGTCAATTACTATAATAAAATTGTTCGTACAAATATTTATTTATAGGTTTATTTTCTATCATTAGTACGTATCTTTTGTATTTGAAAGCGTTTTATTTTATGAGAAAGGG (double strand) [araABDLMNPQ-abfA promoter ORA1-ORA2 WT] .
27

====

Target: AraR WT (Bacillus subtilis) (UniProt P96711)
Experiment: EMSA
Details: 12 mM HEPES-KOH pH 7.6, 10 mM MgCl2, 200 mM NaCl, 4 mM Na2HPO4, 4 mM NaH2PO4, 0.4 mM EDTA, 1 mM DTT, 0.5% BSA, 10% glycerol, 200-fold poly(dI-dC), 1 nM DNA …
Listed sequences paired with reported pKd
pKd here is simply -log10 of the concentration when that concentration is written in mol/L.

Some entries whose results are on file:
construct sequence | subject of test | readout number
GATTGACAGTATAATAGTCAATTACTATAATAACATTGTTCGTACAAATATTTATTTATAGGTTTATTTTCTATCATTAGTACGTATCTTTTGTATTTGAAAGCGTTTTATTTTATGAGAAAGGG (double strand) [ORA1 A1->C] | AraR WT (Bacillus subtilis) (UniProt P96711) | 7.13
GATTGACAGTATAATAGTCAATTACTATAATAAAATTTTTCGTACAAATATTTATTTATAGGTTTATTTTCTATCATTAGTACGTATCTTTTGTATTTGAAAGCGTTTTATTTTATGAGAAAGGG (double strand) [ORA1 G5->T] | AraR WT (Bacillus subtilis) (UniProt P96711) | 6.46

Please report the recorded pKd for GATTGACAGTATAATAGTCAATTACTATAATAAAATTGTTCGTACAAAGATTTATTTATAGGTTTATTTTCTATCATTAGTACGTATCTTTTGTATTTGAAAGCGTTTTATTTTATGAGAAAGGG (double strand) [ORA1 T16->G] .
6.96

Values were extracted from paper PMC4218819.
